Reported Partition coefficient by item:
- Measurement description: Partition of cannabinoids between degummed cannabis oil miscella and water/ethanol/base extraction solvent in a fiber conduit contactor
- Assay type: physicochemical
- Set-up: scale not given here
- Condition: Base Na2CO3; H2O/EtOH/Base (wt %) 87.8/9.7/2.6
- From the text: Degummed miscella from Example 1A were used to investigate the extraction of acid cannabinoids into a water/ethanol solvent using a fiber conduit contactor. Bases tested included sodium bicarbonate (NaHCO3), sodium carbonate (Na2CO3), potassium bicarbonate (KHCO3), and potassium carbonate (K2CO3). […] In Table 3 above, the Examples are ordered by decreasing polarity from top to bottom. […] Blank squares are where coefficients could not be calculated.
Keep the answer to the number alone.

Illustrative cases are given below, each with its answer.
CCCCCc1cc(O)c(C/C=C(\C)CCC=C(C)C)c(O)c1: 1.91
CCCCCc1cc(O)c(C/C=C(\C)CCC=C(C)C)c(O)c1C(=O)O: −0.14
CCCCCc1cc2c(c(O)c1C(=O)O)C=CC(C)(CCC=C(C)C)O2 (centres unmarked): 1.48
CCCCCc1cc(O)c2c(c1)OC(C)(C)[C@@H]1CCC(C)=C[C@@H]21 [THC, tetrahydrocannabinol, reference compound]: 0.47
CCCCCc1cc(O)c2c(c1)OC(C)(CCC=C(C)C)C=C2 (centres unmarked): 0.22

Reported Partition coefficient ( C=C(C)[C@@H]1CCC(C)=C[C@H]1c1c(O)cc(CCCCC)c(C(=O)O)c1O ) = −1.75

Memo: C=C(C)[C@@H]1CCC(C)=C[C@H]1c1c(O)cc(CCCCC)cc1O [CBD, cannabidiol, reference compound] , reported Partition coefficient: −0.55

Lookup result for CCCCCc1cc2c(c(O)c1C(=O)O)[C@@H]1C=C(C)CC[C@H]1C(C)(C)O2 [THCA, tetrahydrocannabinolic acid] ; measured Partition coefficient: 0.41

====

- Measurement description: Partition of cannabinoids between degummed cannabis oil miscella and water/ethanol/base extraction solvent in a fiber conduit contactor
- Type: physicochemical
- Parameters: scale not given here
- Condition: Base Na2CO3; H2O/EtOH/Base (wt %) 82.9/14.5/2.6
Entries and their Partition coefficient values follow.
The reply should be a number, written without any unit.

Example cases with answers are listed next.
CCCCCc1cc2c(c(O)c1C(=O)O)[C@@H]1C=C(C)CC[C@H]1C(C)(C)O2 [THCA, tetrahydrocannabinolic acid]: 0.06
C=C(C)[C@@H]1CCC(C)=C[C@H]1c1c(O)cc(CCCCC)c(C(=O)O)c1O [CBDA, cannabidiolic acid]: −2.11
CCCCCc1cc(O)c(C/C=C(\C)CCC=C(C)C)c(O)c1C(=O)O [CBGA, cannabigerolic acid]: −0.44

Proceed to the following item.
# compound C=C(C)[C@@H]1CCC(C)=C[C@H]1c1c(O)cc(CCCCC)cc1O [CBD, cannabidiol, reference compound] ; its Partition coefficient = −0.9

====

- Measurement description: Partition of cannabinoids between degummed cannabis oil miscella and water/ethanol/base extraction solvent in a fiber conduit contactor
- Format: physicochemical
- Parameters: scale not given here
- Condition: Base NaHCO3; H2O/EtOH/Base (wt %) 72.9/24.6/2.5
The entries below come with measured Partition coefficient values attached.
Provide a numeric answer; units are not to be included.

// below: answered compounds
CCCCCc1cc2c(c(O)c1C(=O)O)[C@@H]1C=C(C)CC[C@H]1C(C)(C)O2 [THCA, tetrahydrocannabinolic acid]: 1
CCCCCc1cc(O)c(C/C=C(\C)CCC=C(C)C)c(O)c1 [CBG, cannabigerol]: 0.76

Value of measured Partition coefficient for the entry C=C(C)[C@@H]1CCC(C)=C[C@H]1c1c(O)cc(CCCCC)cc1O [CBD, cannabidiol, reference compound] : 0.78

CCCCCc1cc2c(c(O)c1C(=O)O)C=CC(C)(CCC=C(C)C)O2 (stereo not shown) [CBCA, cannabichromenic acid] yielded Partition coefficient of 1.14
